Taken from patent US9771334B2.

# Test system: setaria viridis
# PROTOCOL DESCRIPTION: Herbicidal activity, pot culture method (primary and secondary screening test)
# Type: in vivo
# APPLIED CONDITIONS: primary screening, pot culture, 150 g/ha, sprayed at 3-leaf stage, result 15 days later
# Excerpt: This test example is for describing the herbicidal activity inhibition ratio (%) (the dose is 150 g/ha) of the compound with a structure shown in Formula (I). Primary screening test (pot culture method): The test targets are abutilon theophrasti, digitaria sanguinalis, amaranthus retroflexus, echinochloa crusgalli, eclipta prostrata and setaria viridis. […]
ASSAY METRIC: herbicidal activity inhibition ratio (%), Setaria viridis

| COMPOUND | REPORTED |
| --- | --- |
| CCn1c(=O)n(-c2ccccc2C)c(=O)c2cc(C(=O)C3=C(O)CC(C)CC3=O)ccc21 (stereo not drawn) [Compound 70] | 100% |
| CC(C)c1ccccc1-n1c(=O)c2cc(C(=O)C3=C(O)CCCC3=O)ccc2n(C)c1=O [Compound 97] | 50% |
| Cn1c(=O)n(-c2ccc(OC(F)(F)F)cc2)c(=O)c2cc(C(=O)C3=C(O)CCCC3=O)ccc21 [Compound 50] | 50% |
| Cn1c(=O)n(-c2ccccc2Cl)c(=O)c2cc(C(=O)C3=C(O)CCCC3=O)ccc21 [Compound 5] | 100% |
| Cn1c(=O)n(-c2c(Cl)cccc2Cl)c(=O)c2cc(C(=O)C3=C(O)CC(C)(C)CC3=O)ccc21 [Compound 94] | 95% |
| Cc1ccccc1-n1c(=O)c2cc(C(=O)C3=C(O)CC(C)(C)CC3=O)ccc2n(Cc2ccccc2F)c1=O [Compound 85] | 10% |
| Cn1c(=O)n(-c2cccc(F)c2)c(=O)c2cc(C(=O)C3=C(O)CC(C)(C)CC3=O)ccc21 [Compound 11] | 80% |
| Cn1c(=O)n(-c2ccc([N+](=O)[O-])cc2)c(=O)c2cc(C(=O)C3=C(O)CCCC3=O)ccc21 [Compound 45] | 10% |
| Cc1c(C(=O)C2=C(O)CC(C)(C)CC2=O)ccc2c1c(=O)n(-c1ccccc1C(F)(F)F)c(=O)n2C [Compound 91] | 100% |
| Cn1c(=O)n(-c2ccc(Cl)cc2)c(=O)c2cc(C(=O)C3=C(O)CC(C)(C)CC3=O)ccc21 [Compound 2] | 80% |
| CCCn1c(=O)n(-c2ccccc2C)c(=O)c2cc(C(=O)C3=C(O)CCCC3=O)ccc21 [Compound 71] | 98% |
| CC(C)c1ccc(-n2c(=O)c3cc(C(=O)C4=C(O)CCCC4=O)ccc3n(C)c2=O)cc1 [Compound 36] | 50% |
| Cn1c(=O)n(-c2ccccc2Br)c(=O)c2cc(C(=O)C3=C(O)CC(C)(C)CC3=O)ccc21 [Compound 28] | 35% |
| COc1ccccc1-n1c(=O)c2c(C)c(C(=O)C3=C(O)CCCC3=O)ccc2n(C)c1=O [Compound 88] | 100% |
| Cc1ccccc1-n1c(=O)c2c(C)c(C(=O)C3=C(O)CCCC3=O)ccc2n(C)c1=O [Compound 82] | 100% |
| CCCCn1c(=O)n(-c2ccccc2C)c(=O)c2cc(C(=O)C3=C(O)CCCC3=O)ccc21 [Compound 73] | 10% |
| Cn1c(=O)n(-c2ccccc2F)c(=O)c2cc(C(=O)C3=C(O)CCCC3=O)ccc21 [Compound 12] | 100% |
| Cn1c(=O)n(-c2ccccc2OC(F)(F)F)c(=O)c2cc(C(=O)C3=C(O)CCCC3=O)ccc21 [Compound 39] | 80% |
| Cn1c(=O)n(-c2cccc(Br)c2)c(=O)c2cc(C(=O)C3=C(O)CC(C)(C)CC3=O)ccc21 [Compound 24] | 10% |
| Cc1cccc(C)c1-n1c(=O)c2cc(C(=O)C3=C(O)CCCC3=O)ccc2n(C)c1=O [Compound 34] | 80% |
| Cn1c(=O)n(-c2ccccc2)c(=O)c2cc(C(=O)C3=C(O)CCCC3=O)ccc21 [Compound 35] | 50% |
| COc1ccccc1-n1c(=O)c2cc(C(=O)C3=C(O)CCCC3=O)ccc2n(C)c1=O [Compound 29] | 60% |
| Cn1c(=O)n(-c2ccc([N+](=O)[O-])cc2)c(=O)c2cc(C(=O)C3=C(O)CC(C)(C)CC3=O)ccc21 [Compound 53] | 80% |
| CCCn1c(=O)n(-c2ccccc2C)c(=O)c2cc(C(=O)C3=C(O)CC(C)(C)CC3=O)ccc21 [Compound 72] | 30% |
| Cn1c(=O)n(-c2ccccc2Cl)c(=O)c2cc(C(=O)C3=C(O)CC(C)(C)CC3=O)ccc21 [Compound 6] | 90% |
| Cc1c(C(=O)C2=C(O)CCCC2=O)ccc2c1c(=O)n(-c1ccccc1C(F)(F)F)c(=O)n2C [Compound 92] | 100% |
| Cn1c(=O)n(-c2ccc(Cl)cc2Cl)c(=O)c2cc(C(=O)C3=C(O)CC(C)(C)CC3=O)ccc21 [Compound 63] | 30% |
| Cc1ccccc1-n1c(=O)[nH]c2ccc(C(=O)C3=C(O)CC(C)(C)CC3=O)cc2c1=O [Compound 59] | 10% |
| CCn1c(=O)n(-c2ccccc2C)c(=O)c2cc(C(=O)C3=C(O)CC(C)(C)CC3=O)ccc21 [Compound 69] | 85% |
| Cc1ccc(Cl)cc1-n1c(=O)c2cc(C(=O)C3=C(O)CC(C)(C)CC3=O)ccc2n(C)c1=O [Compound 37] | 40% |
